Provenance of the data: patent US8609653B2

# Test system: HIV
# measurement-notes: MT4 assay: antiviral HIV activity in MT-4 cells
# Format: cell-based
# condition-set: Human immunodeficiency virus 1, MT4, 96 h, read-out: HIV MT4 Assay IC50 (μM), HTLV-1 transformed cell line MT-4; read-out 96 hours later with cell titer glo; 10 point dose response
Where a name gives a salt, the structure may show the parent alone.
Labelling: IC50 reported below 0.04 µM becomes rule met; at or above becomes rule not met.

Use the examples below as a reference point.
                                   compound         class
0  Cc1ccc(-c2c(C(OC(C)(C)C)C(=O)O)c(C)nc3c2ccn3Cc2ccccn2)cc1 (stereo not shown) [Example 4, Trifluoroacetic acid salt]  rule not met
1  Cc1ccc(-c2c(C(OC(C)(C)C)C(=O)O)c(C)nc3c2ccn3Cc2ccc(F)cc2)cc1 (stereo not shown)  rule not met
2  COc1cccc(F)c1Cn1ccc2c(-c3ccc4c(c3)CCCO4)c(C(OC(C)(C)C)C(=O)O)c(C)nc21 (stereo not shown)      rule met
3  Cc1ccc(-c2c(C(OC(C)(C)C)C(=O)O)c(C)nc3c2ccn3Cc2cccc(Cl)c2F)cc1 (stereo not shown)  rule not met
4  Cc1ccc(-c2c(C(OC(C)(C)C)C(=O)O)c(C)nc3c2ccn3Cc2c(Cl)ccc(F)c2F)cc1 (stereo not shown)  rule not met
5  Cc1nc2c(ccn2Cc2ccc(F)cc2)c(-c2ccc3c(c2)CCCO3)c1C(OC(C)(C)C)C(=O)O (stereo not shown)  rule not met
6  COc1cccc(F)c1Cn1ccc2c(-c3ccc4c(c3C)CCCO4)c([C@H](OC(C)(C)C)C(=O)O)c(C)nc21      rule met
7  Cc1nc2c(ccn2Cc2c(Cl)cccc2Cl)c(-c2ccc3c(c2)CCCO3)c1C(OC(C)(C)C)C(=O)O (stereo not shown)      rule met
8  Cc1ccc(-c2c([C@@H](OC(C)(C)C)C(=O)O)c(C)nc3c2ccn3Cc2ccc(F)cc2F)cc1  rule not met
9  Cc1ccc(-c2c(C(OC(C)(C)C)C(=O)O)c(C)nc3c2ccn3Cc2ccc3c(c2)OCO3)cc1 (stereo not shown)  rule not met

Query: IC50 under 0.04 µM? Item: Cc1nc2c(c(-c3ccc4c(c3C)CCCO4)c1[C@H](OC(C)(C)C)C(=O)O)CCN2Cc1cccc(F)c1F (atropisomer, axis not shown; (M))
Reply: rule met

Query: Confirm or reject: IC50 of Cc1nc2c(ccn2[C@@H](C)c2ccc(F)cc2)c(-c2ccc3c(c2)CCCO3)c1[C@@H](OC(C)(C)C)C(=O)O lies strictly below 0.04 µM
Reply: rule not met

Query: Find out if reported IC50 for Cc1ccc(-c2c([C@H](OC(C)(C)C)C(=O)O)c(C)nc3c2ccn3Cc2ccc(F)c(F)c2)c(C)c1 (atropisomer, axis not shown; (M)) is less than 0.04 µM
Reply: rule not met

----------
# Tested on: HIV
# measurement-notes: MT4 assay: antiviral HIV activity in MT-4 cells
# Format: cell-based
# condition-set: Human immunodeficiency virus 1, MT4, 96 h, read-out: HIV MT4 Assay IC50 (μM), HTLV-1 transformed cell line MT-4; read-out 96 hours later with cell titer glo; 10 point dose response
Structures can show the parent of a compound that is named as a salt.
attribute-measured: IC50
The answer consists of two parts: a number and, after it, its unit.

Solved entries (count: 3):
molecule	target-or-system	IC50
Cc1nc2c(ccn2Cc2ccc(-n3cncn3)cc2)c(-c2ccc3c(c2)CCCO3)c1C(OC(C)(C)C)C(=O)O (stereo not shown)	HIV	0.98 µM
Cc1nc2c(ccn2C)c(-c2cc(F)c3c(c2C)CCCO3)c1[C@H](OC(C)(C)C)C(=O)O (atropisomer, axis not shown; (M)) [Example 131, Trifluoroacetic acid salt]	HIV	0.055 µM
Cc1ccc(-c2c(C(OC(C)(C)C)C(=O)O)c(C)nc3c2ccn3Cc2ccc(C(F)(F)F)cc2)cc1 (stereo not shown)	HIV	3.96 µM

Query: # input molecule: Cc1ccc(-c2c([C@H](OC(C)(C)C)C(=O)O)c(C)nc3c2ccn3Cc2ccc(F)cc2F)cc1 ; wanted: its IC50
Reply: 0.07 µM
